# TEST SYSTEM: JAK1 (recombinant purified GST-tagged catalytic domain) (Homo sapiens (Human), UniProt P23458);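 also: biochemical assay with HTRF read-out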
# Sequence (P23458 875-1153): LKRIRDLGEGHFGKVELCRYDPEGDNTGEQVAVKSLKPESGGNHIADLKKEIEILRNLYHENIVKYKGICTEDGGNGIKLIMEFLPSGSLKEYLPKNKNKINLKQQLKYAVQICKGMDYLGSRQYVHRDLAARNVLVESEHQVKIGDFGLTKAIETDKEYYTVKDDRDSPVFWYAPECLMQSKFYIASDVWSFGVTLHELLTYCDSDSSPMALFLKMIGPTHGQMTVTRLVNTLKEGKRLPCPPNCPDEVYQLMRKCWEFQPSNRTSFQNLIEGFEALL
# EXPERIMENTAL PROTOCOL: biochemical
VALUE KIND: IC50 (nM)

Take a look at these entries with their results.
N#C[C@H]1CCCC[C@@H]1n1cc(C(N)=O)c(Nc2ccnc(C(F)(F)F)c2)n1 (racemic): 19
N#C[C@H]1C[C@@H](NCc2ccccc2)CC[C@@H]1n1cc(C(N)=O)c(Nc2ccnc(F)c2)n1 (single isomer, unassigned): 0.3
CC(C)(CO)N[C@H]1CCC(n2cc(C(N)=O)c(Nc3ccc(Cl)cc3)n2)[C@@H](C#N)C1 (single isomer, unassigned): 1
N#C[C@H]1C[C@@H](N2CCOCC2)CCC1n1cc(C(N)=O)c(Nc2ccc(S(=O)(=O)C(F)(F)F)cc2)n1 (mixture of isomers): 0.3
N#C[C@H]1CCCC[C@@H]1n1cc(C(N)=O)c(Nc2ccc(F)c(F)c2)n1 (racemic): 4
N#C[C@H]1CCCC[C@@H]1n1cc(C(N)=O)c(Nc2ccc(S(=O)(=O)NCc3ccc(Cl)cc3)cc2)n1 (single isomer, unassigned): 1

(1) CN(C)S(=O)(=O)CCNC1CC[C@H](n2cc(C(N)=O)c(Nc3ccc(S(=O)(=O)C(F)(F)F)cc3)n2)[C@@H](C#N)C1 (single isomer, unassigned)
(2) CC(C)(O)C1CN([C@@H]2CC[C@H](n3cc(C(N)=O)c(Nc4ccc(C(F)(F)F)cc4)n3)[C@@H](C#N)C2)C1 (single isomer, unassigned)
(3) CN(C1CCC1)[C@H]1CC[C@@H](n2cc(C(N)=O)c(Nc3ccc(C(F)(F)F)cc3)n2)[C@H](C#N)C1 (single isomer, unassigned)
# sort list by recorded IC50, greatest to least Quick reminder: the answer is the labels in the order asked.
3, 1, 2
(3: 6 nM, 1: 1 nM, 2: 0.4 nM)

###

# TEST SYSTEM: JAK2 (recombinant purified GST-tagged catalytic domain) (Homo sapiens (Human));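 also: biochemical JAK kinase assay with HTRF detection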
# Sequence (O60674 849-1124): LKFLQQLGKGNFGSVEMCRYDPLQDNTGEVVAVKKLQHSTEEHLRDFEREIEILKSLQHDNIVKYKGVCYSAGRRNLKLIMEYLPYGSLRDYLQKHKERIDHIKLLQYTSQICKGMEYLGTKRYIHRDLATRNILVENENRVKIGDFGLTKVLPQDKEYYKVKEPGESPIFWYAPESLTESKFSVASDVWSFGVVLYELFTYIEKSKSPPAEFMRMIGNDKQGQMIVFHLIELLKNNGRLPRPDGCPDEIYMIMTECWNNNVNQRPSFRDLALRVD
# EXPERIMENTAL PROTOCOL: biochemical
VALUE KIND: IC50 (nM)

The cases that follow already have their IC50 on record.
CS(=O)(=O)c1ccc(Nc2nn(C3CCCC[C@H]3C#N)cc2C(N)=O)cc1 (mixture of isomers): 18
CS(=O)(=O)CCNC1CC[C@H](n2cc(C(N)=O)c(Nc3ccc(S(=O)(=O)C(F)(F)F)cc3)n2)[C@@H](C#N)C1 (single isomer, unassigned): 4
CN([C@H]1CC[C@H](n2cc(C(N)=O)c(Nc3ccc(Cl)cc3)n2)[C@@H](C#N)C1)S(C)(=O)=O (racemic): 6

(A) N#C[C@H]1C[C@H](O)CC[C@@H]1n1cc(C(N)=O)c(Nc2ccc([C@H](O)C(F)(F)F)cc2)n1 (single isomer, unassigned)
(B) N#C[C@H]1C[C@H](OC(=O)NC2CCCCC2)CCC1n1cc(C(N)=O)c(Nc2ccc(F)cc2)n1 (mixture of isomers)
From the recorded data, which exceeds the other in IC50: A or B ? Mark your selection by writing its label.
B
(B: 88 nM, A: 3 nM)

(1) N#C[C@H]1C[C@@H](O)CC[C@@H]1n1cc(C(N)=O)c(Nc2ccc(C(F)(F)F)nc2)n1 (single isomer, unassigned)
(2) CN(C)[C@@H]1CC[C@H](n2cc(C(N)=O)c(Nc3ccc(C(F)(F)F)cc3)n2)[C@@H](C#N)C1 (single isomer, unassigned)
Select one: 1 or 2 . Criterion: greater recorded IC50. Your answer should be the label attached to the chosen record.
1
(1: 65 nM, 2: 21 nM)

Hello, the source for this data is patent US8962608B2, in case you need it.
